Some binders, each annotated with its measured EC50, CreLuc reporter, 0.5% hP.
# Target of assay: T1, human GIP receptor (human, UniProt P48546 22-466)
# T1 sequence (looked up): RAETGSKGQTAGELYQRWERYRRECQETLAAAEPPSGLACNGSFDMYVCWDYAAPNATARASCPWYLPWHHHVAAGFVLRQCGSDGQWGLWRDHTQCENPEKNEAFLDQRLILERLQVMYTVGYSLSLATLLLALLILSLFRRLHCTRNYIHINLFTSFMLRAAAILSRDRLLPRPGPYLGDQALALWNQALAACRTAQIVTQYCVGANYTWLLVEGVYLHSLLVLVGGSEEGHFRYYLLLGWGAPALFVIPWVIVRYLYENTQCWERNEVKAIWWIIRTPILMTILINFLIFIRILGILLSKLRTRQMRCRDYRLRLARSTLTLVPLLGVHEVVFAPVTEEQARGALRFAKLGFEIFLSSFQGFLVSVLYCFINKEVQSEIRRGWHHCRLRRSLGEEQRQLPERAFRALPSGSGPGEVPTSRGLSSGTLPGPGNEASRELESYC
# Assay overview: cell-based or functional assay
*1 amine or outer side, *2 acyl side, *3 side chain or, on linkers, in order; H or OH if unused. Where no end group is shown, it is not given here. Side-chain parts run from the residue outwards. [ ]: non-standard residue; d: D form. The star is where a group is joined. C20 diacid = O=C(O)CCCCCCCCCCCCCCCCCCC(=O)*; γGlu = O=C(O)[C@H](CCC(=O)[*:2])N[*:1]; εLys = N[C@@H](CCCCN[*:1])C(=O)[*:2]; dOR = not defined here; Aib = CC(C)(N)C(=O)O
Recorded endpoint: EC50, CreLuc reporter, 0.5% hP

- YXEGTFTSDYSIXLEEQAQXAFVRHLINKXTRQRY (Aib at 2, 13, 20, 30; Lys29 epsilon-amino acylated with C18DA-gGlu-gGlu-gGlu-gGlu-gGlu-gGlu-eLys; C-terminal amide) [Compound 71]: 0.3 nM
- YXEGTFTSDYSIXLDEQAQXAFVRHLINKXTRQRY (Aib at 2, 13, 20, 30; Lys29 epsilon-amino acylated with C18DA-gGlu-gGlu-gGlu-gGlu-gGlu-gGlu-eLys; C-terminal amide) [Compound 40]: 0.3 nM
- YXEGTFTSDYSIXLEEQAQXAFVRHLINKXTRQRY (Aib at 2, 13, 20, 30; Lys29 epsilon-amino acylated with C18DA-gGlu-gGlu-gGlu-gGlu-gGlu; C-terminal amide) [Compound 75]: 0.3 nM
- Y[Aib]EGTFTSDYSI[Aib]LDKQAQ[Aib]AFVRHLINK([εLys-γGlu-γGlu-γGlu-γGlu-γGlu-γGlu-γGlu-C20 diacid])[Aib]TRQ[dOR]Y-NH2 (reading uncertain) [Compound 16]: 0.5 nM
- YXEGTFTSDYSIXLEKQAQXEFVRHLINKLTRQRY (Aib at 2, 13, 20; Lys29 epsilon-amino acylated with C20DA-gGlu-gGlu-gGlu-gGlu-gGlu-gGlu-eLys; C-terminal amide) [Compound 39]: 0.9 nM
- YXEGTFTSDYSIXLEKQAQXAFVRQLINKXTRQRY (Aib at 2, 13, 20, 30; Lys29 epsilon-amino acylated with C18DA-gGlu-gGlu-gGlu-gGlu-gGlu; C-terminal amide) [Compound 50]: 0.7 nM

Data origin: patent US20250382344A1
